Test system: Fibroblast
Method Description: Multiplex assay against human fibroblast
Assay type: toxicity, cell-based
Condition Context: 12 h, 1 µM, compound concentration 1 uM, replicate 1
Quick list: Population Mitochondria Different-Phenotype (%) per entry.
Outcome Measure: Population Mitochondria Different-Phenotype (%)

compound="Cl.N#Cc1ccc2[nH]cc(CCCCN3CCN(c4ccc5oc(C(N)=O)cc5c4)CC3)c2c1 [VILAZODONE HYDROCHLORIDE]" output_unit=% reported_measurement=9
compound="CN(C)CC#Cc1ccc(OCCCc2sc(N3CCc4cccc(C(=O)Nc5nc6ccccc6s5)c4C3)nc2C(=O)O)c(F)c1 [A-1155463]" output_unit=% reported_measurement=9

* * *

System: U2OS
Method Description: Multiplex assay against U2OS
Assay type: toxicity, cell-based
Condition Context: human, 24 h, 1 µM, compound concentration 1 uM, replicate 2
Outcome Measure: Population Normal (%)

molecule="C[C@@H](NCCCc1cccc(C(F)(F)F)c1)c1cccc2ccccc12.Cl [CINACALCET HYDROCHLORIDE]" output_unit=% reported_measurement=92
molecule=CN(C)CC#Cc1ccc(OCCCc2sc(N3CCc4cccc(C(=O)Nc5nc6ccccc6s5)c4C3)nc2C(=O)O)c(F)c1 output_unit=% reported_measurement=92
molecule="CN1CCCC(n2nc(Cc3ccc(Cl)cc3)c3ccccc3c2=O)CC1.Cl (stereo unspecified) [AZELASTINE HYDROCHLORIDE]" output_unit=% reported_measurement=91
molecule=Cc1nc(-c2ccc(-c3ccc(C(=O)N4CCc5cc6c(cc54)C4(CCN(C)CC4)CO6)cc3)c(C)c2)no1 output_unit=% reported_measurement=90
molecule=OC1(c2ccc(Cl)cc2)CCN(Cc2c[nH]c3ccccc23)CC1 output_unit=% reported_measurement=91
molecule=Cc1[nH]c(/C=C2\C(=O)Nc3ccc(S(=O)(=O)N(C)c4cccc(Cl)c4)cc32)c(C)c1C(=O)N1CCN(C)CC1 output_unit=% reported_measurement=91
molecule=CC[C@H](C)C(=O)O[C@H]1C[C@@H](C)C=C2C=C[C@H](C)[C@H](CC[C@@H]3C[C@@H](O)CC(=O)O3)[C@H]21 output_unit=% reported_measurement=90
molecule=CN1CCN(CCOc2cc(OC3CCOCC3)c3c(Nc4c(Cl)ccc5c4OCO5)ncnc3c2)CC1 output_unit=% reported_measurement=91
molecule=COc1ncc(-c2ccc3nccc(-c4ccnnc4)c3c2)cc1NS(=O)(=O)c1ccc(F)cc1F output_unit=% reported_measurement=88
molecule=COc1cc(-n2cnc3cc(-c4ccc(Cl)cc4)sc3c2=O)ccc1OCCN1CCCC1 output_unit=% reported_measurement=89
molecule="COc1cccc([C@@H](C)NCCCc2ccccc2Cl)c1.Cl [TECALCET HYDROCHLORIDE]" output_unit=% reported_measurement=91

* * *

System: U2OS
Method Description: Multiplex assay against U2OS
Format: toxicity, cell-based
Condition Context: human, 48 h, 10 µM, compound concentration 10 uM, replicate 2
Outcome Measure: Total Cell Count

compound=Cc1c(-c2ccc(O)cc2)n(Cc2ccc(OCCN3CCCCCC3)cc2)c2ccc(O)cc12 reported_measurement=43
compound=CCn1c(=O)c(-c2ccc(Cl)cc2Cl)cc2cnc(Nc3ccc(N4CCNCC4)c(F)c3)nc21 reported_measurement=227
compound=CCOCCn1cc(C(=O)Nc2ccc(-n3nc(-c4cccnc4)cc3C(F)(F)F)cn2)ccc1=O reported_measurement=114
compound=c1cn2cc(-c3ccc4cn[nH]c4c3)nc(Nc3ccc(N4CCOCC4)cc3)c2n1 reported_measurement=79
compound="C[C@@H](NCCCc1cccc(C(F)(F)F)c1)c1cccc2ccccc12.Cl [CINACALCET HYDROCHLORIDE]" reported_measurement=68

Where these numbers come from: ChEMBL document CHEMBL4689842
